The reported measurements were obtained from patent US20240325562A1.

experimental system: T1, recombinant rPDGFRB ectodomain (rat, UniProt Q05030 32-531)
T1 chain: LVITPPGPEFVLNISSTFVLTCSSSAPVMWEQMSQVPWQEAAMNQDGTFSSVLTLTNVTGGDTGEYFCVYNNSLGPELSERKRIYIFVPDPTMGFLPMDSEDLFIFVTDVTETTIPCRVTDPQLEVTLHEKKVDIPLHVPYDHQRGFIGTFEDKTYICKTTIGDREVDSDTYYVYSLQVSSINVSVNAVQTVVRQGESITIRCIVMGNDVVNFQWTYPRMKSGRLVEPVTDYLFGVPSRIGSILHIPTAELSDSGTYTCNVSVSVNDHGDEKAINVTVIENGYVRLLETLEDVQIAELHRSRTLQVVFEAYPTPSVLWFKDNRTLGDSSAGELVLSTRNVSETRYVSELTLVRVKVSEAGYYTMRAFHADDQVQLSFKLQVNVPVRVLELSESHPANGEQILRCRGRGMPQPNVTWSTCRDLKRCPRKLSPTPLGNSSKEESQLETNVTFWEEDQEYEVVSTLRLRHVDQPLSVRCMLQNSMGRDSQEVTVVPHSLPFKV
experiment summary: binding to immobilized ectodomain
pKd: −log10 of the molar value.
assay endpoint: pKd

[[record]]
binder = "SP28P (VHH) VHH: EVQLVESGGGLVQAGGSLRLSCAASGSIVSFNGINWYRQAPGKQREWVGGITQGGNTMYADSVRGRFTISRDNTKNTMYLQMNSLKPEDTAVYYCRRPPVASWGQGTQVTVSS"
assay_endpoint = "pKd"
observed = 8.22

[[record]]
binder = "SP36P (VHH) VHH: EVQLVESGGGLVQAGGSLRLSCTPSITTAGTTIMAWFRQAPGNEREFVAAIWGSKTAYGDSMKGRLTISRDNVRDNGQKTVFLQMNNLQLQDTATYYCAASSGGYVHSSTSYEIWGRGTQVTVSS"
assay_endpoint = "pKd"
observed = 7.51

[[record]]
binder = "SP31P (VHH) VHH: EVQLVESGGGLVQAGGSLRLSCAASRGTFGTYIMGWFRQAPGKEREFVAAISWRGANTYYGYSVKGRFTISRDNAKNTMYLQMADLKPEDTADYYCGVHLNGTPYYYASGYRYWGQGTQVTVSS"
assay_endpoint = "pKd"
observed = 6.56

[[record]]
binder = "SP27P (VHH) VHH: EVQLVESGGGLVQIGDSLRLSCAASGGTFNRYGMGWFRQAPGKEREFVAAIRWDGVDTNYADFVKGRFTISRYNAKNTAYLQMNSLKPEDTAVYYCAADRRGLYTKHAHRYDYWGQGTQVTVSS"
assay_endpoint = "pKd"
observed = 7.59

[[record]]
binder = "SP30P (VHH) VHH: EVQLVESGGGLVQAGGSLRLSCAASRGTFGTDIMGWFRQAPGKEREFVAAISWRGANTYYGYSVKGRFTISRDNAKNTMYLQMADLKPEDTADYYCGVHLNGTPYYYASGYRYWGQGTQVTVSS"
assay_endpoint = "pKd"
observed = 7.91

